test.target: human α2C adrenoceptor (Homo sapiens)
Construct: expressed in transfected cells; host or cells: LM(tk-)
Sequence (P18825 whole entry): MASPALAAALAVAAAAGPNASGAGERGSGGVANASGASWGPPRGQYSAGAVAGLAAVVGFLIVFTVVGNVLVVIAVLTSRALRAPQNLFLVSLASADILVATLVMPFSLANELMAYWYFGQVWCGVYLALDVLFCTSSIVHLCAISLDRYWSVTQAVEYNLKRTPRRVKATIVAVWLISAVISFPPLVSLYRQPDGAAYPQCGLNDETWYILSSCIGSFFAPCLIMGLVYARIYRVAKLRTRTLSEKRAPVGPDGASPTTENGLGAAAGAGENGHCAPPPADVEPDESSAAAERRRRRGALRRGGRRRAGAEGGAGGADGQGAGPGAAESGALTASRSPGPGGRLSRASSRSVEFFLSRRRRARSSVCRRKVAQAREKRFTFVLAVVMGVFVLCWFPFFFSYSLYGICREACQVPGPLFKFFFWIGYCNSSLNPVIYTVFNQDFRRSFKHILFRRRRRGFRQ
assay.details: Inhibition of forskolin stimulated adenylyl cyclase, α2C
Assay type: cell-based
condition.notes: read-out: intrinsic activity (i.a.) α2C
property.measured: Emax (%)

molecule | value.reported
COc1ccc(SC)c2c1C[C@@H]1[C@@H](C2)OCCN1C (relative stereo) [SDZ NVI-085] | 0
CN[C@@H](C)[C@H](O)c1ccccc1 [(-)-ephedrine] | 0
COc1ccc(OC)c(C(O)CN)c1 (racemic) [ST-1059] | 50
CNCCc1ccc(O)c(NS(C)(=O)=O)c1 [SK&F 102652] | 80
C[C@H](N)[C@H](O)c1ccccc1 [(-)-norephedrine] | 60

----------
test.target: human 5-HT1Dβ receptor (Homo sapiens)
Construct: expressed in transfected cells; host or cells: LM(tk-) clonal cell line, designated Ltk-11, ATCC CRL 10422 (cell lysates)
Sequence (P28222 whole entry): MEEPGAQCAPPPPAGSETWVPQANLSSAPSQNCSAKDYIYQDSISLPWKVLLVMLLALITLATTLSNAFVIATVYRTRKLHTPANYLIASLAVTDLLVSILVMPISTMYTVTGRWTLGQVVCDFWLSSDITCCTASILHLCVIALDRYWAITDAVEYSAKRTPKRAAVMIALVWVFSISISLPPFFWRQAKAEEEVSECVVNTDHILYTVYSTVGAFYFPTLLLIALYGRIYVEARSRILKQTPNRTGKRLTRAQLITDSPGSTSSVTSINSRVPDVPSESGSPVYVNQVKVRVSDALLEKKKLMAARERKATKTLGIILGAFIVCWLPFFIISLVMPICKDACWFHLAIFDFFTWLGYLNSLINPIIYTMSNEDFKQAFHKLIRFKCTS
assay.details: Radioligand binding at human 5-HT1Dβ
property.measured: Ki (nM)

compound | property.measured | unit.abbrev | value.reported
COc1ccc(SC)c2c1C[C@@H]1[C@@H](C2)OCCN1C (relative stereo) | Ki | nM | 20

----------
test.target: human α2A adrenoceptor (Homo sapiens)
Construct: expressed in transfected cells; host or cells: LM(tk-)
assay.details: Radioligand binding ([3H]rauwolscine) at cloned human α2A
property.measured: Ki (nM)

compound | unit.abbrev | value.reported
COc1ccc(SC)c2c1C[C@@H]1[C@@H](C2)OCCN1C (relative stereo) [SDZ NVI-085] | nM | 50.1

----------
The compounds listed here are annotated with their pKB Dog BN Male.
test.target: UniProt A0A8I3NK63
Sequence (A0A8I3NK63 1-466): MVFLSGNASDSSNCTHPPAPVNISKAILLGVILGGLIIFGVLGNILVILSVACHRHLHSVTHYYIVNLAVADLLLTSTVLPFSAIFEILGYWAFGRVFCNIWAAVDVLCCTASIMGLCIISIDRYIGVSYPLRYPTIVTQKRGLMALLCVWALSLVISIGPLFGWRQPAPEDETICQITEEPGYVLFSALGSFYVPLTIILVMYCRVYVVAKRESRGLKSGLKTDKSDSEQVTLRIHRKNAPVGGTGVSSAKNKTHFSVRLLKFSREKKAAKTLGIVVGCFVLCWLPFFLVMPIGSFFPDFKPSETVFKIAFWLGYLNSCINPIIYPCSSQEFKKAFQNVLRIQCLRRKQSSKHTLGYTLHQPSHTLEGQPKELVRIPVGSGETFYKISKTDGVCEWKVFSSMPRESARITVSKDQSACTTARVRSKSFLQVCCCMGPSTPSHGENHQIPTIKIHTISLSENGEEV
assay.details: Contractile study in isolated male dog bladder neck
condition.notes: versus phenylephrine-induced contraction
From the text: In addition, similar studies were done using bladder neck tissue from female dogs. In order to identify the specific receptor subtype in each tissue, the pharmacological profile was compared to the profiles for these same drugs at the cloned human α1A, α1B, or α1C subtypes. […]

compound | test.target | pKB Dog BN Male
COc1ccccc1N1CCN(CCCNc2c(C)c(=O)n(C)c(=O)n2C)CC1 [Compound 5-MU] | UniProt A0A8I3NK63 | 8.7
COC(=O)C1=C(C)NC(C)=C(C(=O)OCCCN2CCC(c3ccccc3)(c3ccccc3)CC2)C1c1ccc([N+](=O)[O-])cc1.Cl (racemic) [Compound 1] | UniProt A0A8I3NK63 | 6.2
COc1ccccc1N1CCN(CCN2C(=O)CC3(CCCC3)CC2=O)CC1 [BMY 7378] | UniProt A0A8I3NK63 | 7.1
COc1cc2c(cc1OC)CN(c1cc(N)c3cc(OC)c(OC)cc3n1)CC2 [Abanoquil, hemifumarate hydrate] | UniProt A0A8I3NK63 | 8.6

----------
test.target: UniProtKB P35348
assay.details: cell-based
Type: cell-based
property.measured: EC50 (nM)

molecule | test.target | unit.abbrev | value.reported
COc1ccc(OC)c(C(O)CN)c1 (racemic) | UniProtKB P35348 | nM | 2000

----------
The compounds listed here are annotated with their EC50.
test.target: human α2A adrenoceptor (Homo sapiens, UniProt P08913)
Construct: expressed in transfected cells; host or cells: LM(tk-)
Sequence (P08913 1-465): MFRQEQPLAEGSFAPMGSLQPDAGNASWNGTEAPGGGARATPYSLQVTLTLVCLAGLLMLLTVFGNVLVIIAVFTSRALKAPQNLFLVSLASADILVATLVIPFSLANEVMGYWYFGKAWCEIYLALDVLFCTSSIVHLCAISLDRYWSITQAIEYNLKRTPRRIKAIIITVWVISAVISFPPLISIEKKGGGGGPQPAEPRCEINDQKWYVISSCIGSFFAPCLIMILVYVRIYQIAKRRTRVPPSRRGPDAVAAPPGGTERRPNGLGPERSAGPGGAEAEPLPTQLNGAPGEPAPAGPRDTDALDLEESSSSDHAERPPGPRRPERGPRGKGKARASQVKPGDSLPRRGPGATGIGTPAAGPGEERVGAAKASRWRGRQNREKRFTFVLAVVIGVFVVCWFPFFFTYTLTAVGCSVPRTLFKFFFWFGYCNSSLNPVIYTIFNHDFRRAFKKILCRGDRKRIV
assay.details: Inhibition of forskolin stimulated adenylyl cyclase, α2A
Type: cell-based
property.measured: EC50 (nM)

compound | value.reported
COc1ccc(OC)c(C(O)CN)c1 (racemic) | 2510
C[C@H](N)[C@H](O)c1ccccc1 [(-)-norephedrine] | 7.94
CN[C@@H](C)[C@H](O)c1ccccc1 [(-)-ephedrine] | 251

----------
test.target: human α1C adrenoceptor (Homo sapiens)
Sequence (P35348 whole entry): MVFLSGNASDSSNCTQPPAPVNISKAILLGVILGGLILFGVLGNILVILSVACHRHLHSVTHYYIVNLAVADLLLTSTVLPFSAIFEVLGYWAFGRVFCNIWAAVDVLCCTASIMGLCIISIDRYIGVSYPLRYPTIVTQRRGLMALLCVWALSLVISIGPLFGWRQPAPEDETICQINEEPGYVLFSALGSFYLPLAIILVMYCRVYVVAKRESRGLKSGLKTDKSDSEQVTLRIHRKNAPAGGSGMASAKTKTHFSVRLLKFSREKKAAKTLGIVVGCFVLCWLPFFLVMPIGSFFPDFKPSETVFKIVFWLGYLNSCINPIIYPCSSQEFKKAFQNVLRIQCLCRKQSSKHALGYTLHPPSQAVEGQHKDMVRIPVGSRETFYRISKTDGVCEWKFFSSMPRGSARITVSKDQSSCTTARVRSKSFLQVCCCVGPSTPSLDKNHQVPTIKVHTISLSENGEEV
assay.details: cell-based
Assay type: cell-based
condition.notes: relative to reference full agonist (e.g., norepinephrine = unity); read-out: intrinsic activity (i.a.) α1C
Param threshold (90%) applies to Emax; output t when value >= threshold, f when value < threshold.

compound | label.value
CN[C@@H](C)[C@H](O)c1ccccc1 [(-)-ephedrine] | f
C[C@H](N)[C@H](O)c1ccccc1 [(-)-norephedrine] | f
CS(=O)(=O)Nc1c(O)ccc2c1CCCC2C1=NCCN1 (racemic) [Compound A-61603] | t
COc1ccc(SC)c2c1C[C@@H]1[C@@H](C2)OCCN1C (relative stereo) [SDZ NVI-085] | t

----------
test.target: human α2B adrenoceptor (Homo sapiens, UniProt P18089)
Sequence (P18089 whole entry): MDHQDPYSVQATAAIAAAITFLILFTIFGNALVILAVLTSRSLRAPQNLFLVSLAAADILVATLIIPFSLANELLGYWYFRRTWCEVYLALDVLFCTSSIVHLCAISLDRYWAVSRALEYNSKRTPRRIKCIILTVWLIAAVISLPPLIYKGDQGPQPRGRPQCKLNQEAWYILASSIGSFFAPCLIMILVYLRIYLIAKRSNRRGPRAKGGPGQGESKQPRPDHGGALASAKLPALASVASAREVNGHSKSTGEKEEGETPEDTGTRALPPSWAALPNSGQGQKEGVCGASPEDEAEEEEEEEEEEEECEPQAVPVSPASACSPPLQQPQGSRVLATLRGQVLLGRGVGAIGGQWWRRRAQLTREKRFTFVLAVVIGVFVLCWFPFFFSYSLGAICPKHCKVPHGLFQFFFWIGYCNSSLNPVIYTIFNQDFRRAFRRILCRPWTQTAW
assay.details: Inhibition of forskolin stimulated adenylyl cyclase, α2B
Assay type: cell-based
Design: expressed in transfected cells; host or cells: Y1 cells, line Ya2B-2 (ATCC CRL 11888)
condition.notes: read-out: intrinsic activity (i.a.) α2B
The molecules listed here are annotated with their Emax.

molecule | Emax [%]
C[C@H](N)[C@H](O)c1ccccc1 [(-)-norephedrine] | 50
COc1ccc(SC)c2c1C[C@@H]1[C@@H](C2)OCCN1C (relative stereo) [SDZ NVI-085] | 0
CNCCc1ccc(O)c(NS(C)(=O)=O)c1 [SK&F 102652] | 90
COc1ccc(OC)c(C(O)CN)c1 (racemic) [ST-1059] | 60
CN[C@@H](C)[C@H](O)c1ccccc1 [(-)-ephedrine] | 40

----------
test.target: human α2A adrenoceptor (Homo sapiens)
Construct: expressed in transfected cells; host or cells: LM(tk-)
Sequence (P08913 1-465): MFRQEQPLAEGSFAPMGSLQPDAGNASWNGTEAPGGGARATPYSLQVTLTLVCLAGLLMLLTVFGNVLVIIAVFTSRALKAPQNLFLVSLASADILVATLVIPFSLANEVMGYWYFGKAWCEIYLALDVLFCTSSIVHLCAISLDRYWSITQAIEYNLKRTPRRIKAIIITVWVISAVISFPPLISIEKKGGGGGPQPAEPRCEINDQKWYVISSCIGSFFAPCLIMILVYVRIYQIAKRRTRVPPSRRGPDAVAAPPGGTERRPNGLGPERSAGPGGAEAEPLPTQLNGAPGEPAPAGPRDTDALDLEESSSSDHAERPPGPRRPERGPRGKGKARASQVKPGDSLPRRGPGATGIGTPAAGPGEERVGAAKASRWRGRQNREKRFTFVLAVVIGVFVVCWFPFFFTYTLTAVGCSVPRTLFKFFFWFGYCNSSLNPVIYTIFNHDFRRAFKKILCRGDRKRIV
assay.details: Inhibition of forskolin stimulated adenylyl cyclase, α2A
Format: cell-based
condition.notes: read-out: intrinsic activity (i.a.) α2A
The compounds listed here are annotated with their Emax.

compound | unit.abbrev | Emax
CNCCc1ccc(O)c(NS(C)(=O)=O)c1 | % | 0
COc1ccc(OC)c(C(O)CN)c1 (racemic) | % | 20
COc1ccc(SC)c2c1C[C@@H]1[C@@H](C2)OCCN1C (relative stereo) | % | 0
C[C@H](N)[C@H](O)c1ccccc1 [(-)-norephedrine] | % | 50
CN[C@@H](C)[C@H](O)c1ccccc1 [(-)-ephedrine] | % | 30

----------
test.target: human α1A adrenoceptor (Homo sapiens, UniProt P25100)
Sequence (P25100 whole entry): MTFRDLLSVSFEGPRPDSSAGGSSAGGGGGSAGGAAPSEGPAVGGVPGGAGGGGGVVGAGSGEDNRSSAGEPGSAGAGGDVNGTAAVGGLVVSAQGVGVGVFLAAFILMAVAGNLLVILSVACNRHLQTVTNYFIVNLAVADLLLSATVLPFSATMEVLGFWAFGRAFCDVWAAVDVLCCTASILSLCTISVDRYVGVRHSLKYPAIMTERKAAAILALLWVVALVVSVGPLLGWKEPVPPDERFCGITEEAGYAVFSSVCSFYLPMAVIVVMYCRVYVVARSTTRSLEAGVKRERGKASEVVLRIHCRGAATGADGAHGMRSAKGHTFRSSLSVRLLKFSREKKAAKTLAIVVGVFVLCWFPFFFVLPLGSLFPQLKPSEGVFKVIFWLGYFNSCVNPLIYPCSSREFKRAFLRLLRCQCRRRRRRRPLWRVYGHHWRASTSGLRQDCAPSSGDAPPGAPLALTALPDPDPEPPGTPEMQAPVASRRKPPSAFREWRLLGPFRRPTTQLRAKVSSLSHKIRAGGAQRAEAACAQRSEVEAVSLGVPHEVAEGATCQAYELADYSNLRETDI
assay.details: biochemical
Assay type: binding
Hi! Could you tag entries with Ki below 30 µM as 1, and those at or above as 0? Much appreciated.

molecule | label.value
CNC[C@H](O)c1cccc(O)c1 [(-)-phenylephrine] | 1
CN[C@@H](C)[C@H](O)c1ccccc1 [(-)-ephedrine] | 0
C[C@H](N)[C@H](O)c1ccccc1 [(-)-norephedrine] | 1
COc1ccc(OC)c(C(O)CN)c1 (racemic) | 1
COC(=O)C1=C(C)NC(C)=C(C(=O)OCCCN2CCC(c3ccccc3)(c3ccccc3)CC2)C1c1ccc([N+](=O)[O-])cc1.Cl (racemic) [Compound 1, hydrochloride] | 1

----------
test.target: human 5-HT1Dα receptor (Homo sapiens)
Construct: expressed in transfected cells; host or cells: LM(tk-) clonal cell line, designated Ltk-8-30-84, ATCC CRL 10421 (cell lysates)
Sequence (P28221 whole entry): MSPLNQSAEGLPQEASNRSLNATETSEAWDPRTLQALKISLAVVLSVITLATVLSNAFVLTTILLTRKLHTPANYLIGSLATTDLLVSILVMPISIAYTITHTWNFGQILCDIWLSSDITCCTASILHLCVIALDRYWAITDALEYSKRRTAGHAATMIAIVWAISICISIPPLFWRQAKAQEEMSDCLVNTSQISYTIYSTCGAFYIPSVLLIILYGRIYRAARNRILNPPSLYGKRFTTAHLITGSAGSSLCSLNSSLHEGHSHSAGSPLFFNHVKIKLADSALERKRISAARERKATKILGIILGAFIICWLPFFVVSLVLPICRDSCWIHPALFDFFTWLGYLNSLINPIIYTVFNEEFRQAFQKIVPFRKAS
assay.details: Radioligand binding at human 5-HT1Dα
property.measured: Ki (nM)

compound | property.measured | unit.abbrev | value.reported
COc1ccc(SC)c2c1C[C@@H]1[C@@H](C2)OCCN1C (relative stereo) [SDZ NVI-085] | Ki | nM | 12.6
